assay: gradient 5% acetonitrile 3 min, to 50% in 2 min, to 85% in 15 min, held 3 min, 100 µL/min; settings: column: Zorbax Extend-C18 2.1 x 50 mm; eluents: water / acetonitrile, 0.1% formic acid
Response key: criterion met means RP-LC retention time >= 800 s; criterion not met means RP-LC retention time < 800 s.

Check out these entries, answers already filled in.
# Molecule, Class
records = [
    ("CCCCCNC(=O)C1CCN(S(C)(=O)=O)c2cc(Cl)ccc2O1 (centres undefined)", "criterion met"),
    ("CCOc1cc(C2c3c(n[nH]c3C)C(=O)N2C)ccc1O (centres undefined)", "criterion not met"),
    ("Cc1oc(C2CCN(C(=O)C3CCN(S(=O)(=O)N4CCC(C)CC4)CC3)CC2)nc1C(=O)N1CCCC1", "criterion met"),
    ("COc1ccc(-c2c(C)noc2NC(C)=O)cc1S(=O)(=O)N1CCN(c2ncccn2)CC1", "criterion not met"),
    ("Cn1ncc2cc3c(Nc4ccc(Cl)cc4)cccc3nc21", "criterion not met"),
]

Lookup: Determine whether this molecule has RP-LC retention time no lower than 800 s: COc1ccc(C(=O)N2CCC3(C2)C(=O)Nc2ccc(OC)cc23)c(OC)c1 (centres undefined)
Found: criterion not met

---

test: gradient 5% acetonitrile 3 min, to 50% in 2 min, to 85% in 15 min, held 3 min, 100 µL/min; conditions: column: Zorbax Extend-C18 2.1 x 50 mm; eluents: water / acetonitrile, 0.1% formic acid
Outcome: Met for RP-LC retention time of at least 800 s; Not met for anything lower.

Example entries and their recorded answers appear below.
# Compound, Class
measured = [
    ("COc1ccccc1CNC(=O)C1CCN(Cc2cn(C)c3ccc(Cl)cc23)CC1", "Not met"),
    ("CN1C(=O)CC[C@]2(C(=O)NCc3cccc(C(F)(F)F)c3)CCCC[C@@H]12", "Not met"),
    ("Cn1c(N2CCC(C(=O)NCc3ccccn3)CC2)cc(=O)n(C)c1=O", "Not met"),
]

Lookup: Decide: RP-LC retention time of `CCN1C(=O)c2cccnc2Sc2cc(NC(=O)c3ccc(C)c(F)c3)ccc21` >= 800 s?
Found: Met

Lookup: Repeat with `Cc1cc(OCC(=O)Nc2ccnn2Cc2ccco2)cc(C)c1Cl`
Found: Met

---

Reported RP-LC retention time is given for each of the following compounds.
experiment: gradient 5% acetonitrile 3 min, to 50% in 2 min, to 85% in 15 min, held 3 min, 100 µL/min; settings: column: Zorbax Extend-C18 2.1 x 50 mm; eluents: water / acetonitrile, 0.1% formic acid
Just the number please, in s, no unit attached.

# Compound, Measurement Name, Val
data = [
    ("Fc1cccc(CNc2nnc(-c3nnc(C4CC4)o3)c3ccccc23)c1", "RP-LC retention time", 933),
    ("COc1ccccc1NC(=O)Cn1nc2c(Oc3ccc(Cl)cc3)nccn2c1=O", "RP-LC retention time", 859),
    ("O=C1NC2(CCN(C(=O)NCc3cccc(F)c3)CC2)Nc2cc(Cl)ccc21", "RP-LC retention time", 770),
    ("Cc1nnc(SCC2=C(C(=O)O)N3C(=O)C(NC(=O)Cn4cnnn4)C3SC2)s1 (stereo not given)", "RP-LC retention time", 641),
]

Now for another entry.
Lookup: Consider the compound `COc1ccc(-c2cn3ccn(-c4cccc(Cl)c4)c(=O)c3n2)cc1` and give its measured RP-LC retention time.
Found: 837

---

experiment: gradient 5% acetonitrile 3 min, to 50% in 2 min, to 85% in 15 min, held 3 min, 100 µL/min; conditions: column: Zorbax Extend-C18 2.1 x 50 mm; eluents: water / acetonitrile, 0.1% formic acid
# strict inequality: RP-LC retention time < 800 s yields satisfied, everything else yields not satisfied

# Compound, Class
data = [
    ("COc1nccnc1NC1CCN(C(=O)c2ccco2)CC1", "satisfied"),
    ("COc1ccc(OC)c(-c2nnc(NC(=O)CSc3ccc(Cl)cc3)s2)c1", "not satisfied"),
    ("O=C(Nc1ccccc1F)C(=O)c1ccc[nH]1", "not satisfied"),
    ("Cc1cccc(NS(=O)(=O)c2ccc3nnc(C)n3c2)c1", "satisfied"),
]

Lookup: Report whether reported RP-LC retention time is lower than 800 s (strictly) for Cc1ccc(-n2nc3c(N4CCCC(C(=O)NCCc5cccs5)C4)nnc(C)c3c2C)cc1 (stereo not given)
Found: satisfied

---

experiment: gradient 5% acetonitrile 3 min, to 50% in 2 min, to 85% in 15 min, held 3 min, 100 µL/min; details: column: Zorbax Extend-C18 2.1 x 50 mm; eluents: water / acetonitrile, 0.1% formic acid
Documented RP-LC retention time across a set of molecules
Just the number plus its unit, please.

Worked examples, 8 molecules total:
# Molecule, RP-LC retention time
records = [
    ("Cc1ccc(C)c(N2CCN(c3ccnc(SCC(=O)NC4CCCCC4)n3)CC2)c1", "940 s"),
    ("COc1ccc(CN2C=C(C(=O)OCc3cccc(OC)c3)C(C)=NS2(=O)=O)cc1", "1100 s"),
    ("Cc1ccc(S(=O)(=O)N2CCC(n3c(-c4ccco4)nc4cccnc43)C2)cc1Cl (centres undefined)", "999 s"),
    ("CN1C(=O)c2cc(S(=O)(=O)NC3CCCCCC3)ccc2Oc2cccnc21", "1000 s"),
    ("Cc1ccccc1-c1ccc(N2CCC(C(=O)Nc3cccnc3)CC2)nn1", "546 s"),
    ("Cc1cc(-c2nnc(-c3ccc(F)cc3)o2)c(C)n1CC(=O)Nc1ccc2c(c1)OCCO2", "916 s"),
    ("O=C(Cn1c(=O)c2cccn2c2ccc(F)cc21)NCCCN1CCCC1", "598 s"),
    ("CCc1nnc(-c2ccc3ccn(CC(=O)Nc4cccc(OC)c4)c3c2)o1", "839 s"),
]

Here is the next item to consider.
Lookup: Look up RP-LC retention time: `O=C(Nc1cccc(F)c1)c1csc(-c2ccc(N3CCCC3)nc2)n1`
Found: 772 s

---

assay: gradient 5% acetonitrile 3 min, to 50% in 2 min, to 85% in 15 min, held 3 min, 100 µL/min; conditions: column: Zorbax Extend-C18 2.1 x 50 mm; eluents: water / acetonitrile, 0.1% formic acid
Measurement Name: RP-LC retention time

A selection of reference data follows.
# Compound, RP-LC retention time
measured = [
    ("O=C1CC(c2cc(F)cc(F)c2)Cc2nc(N3CCN(c4ccccc4)CC3)ncc21 (stereo not given)", "1270 s"),
    ("COc1ccc(Cl)cc1S(=O)(=O)NCc1c(-c2ccccc2)nc2sc(C)nn12", "912 s"),
    ("O=C(NCC1CCN(C(=O)COc2ccccc2)CC1)c1ccc(Br)o1", "722 s"),
    ("CN(Cc1nc(-c2ccc(N3CCCC3)nc2)no1)C1CCCCC1", "569 s"),
    ("CN(CCc1noc(-c2ccc(C(=O)N3CCOCC3)cc2)n1)C(=O)COc1ccc(Cl)cc1", "766 s"),
    ("O=c1oc2cc(O)c(Cl)cc2c2ccccc12", "847 s"),
]

Lookup: Fill in the blank: the reported RP-LC retention time of `Cc1ccc(CNC(=O)N2CC(N(C3CCOCC3)S(C)(=O)=O)C2)cc1` is ____.
Found: 591 s

Lookup: Request: `O=C(NCc1ccco1)N1CCCn2nc(-c3cccc(Cl)c3)cc2C1`
Found: 854 s

Lookup: Likewise for COc1ccc(NC(=O)Cn2nc3nc(N4CCCC(C)C4)ccn3c2=O)cc1 (stereo not given) ?
Found: 734 s

---

experiment: gradient 5% acetonitrile 3 min, to 50% in 2 min, to 85% in 15 min, held 3 min, 100 µL/min; conditions: column: Zorbax Extend-C18 2.1 x 50 mm; eluents: water / acetonitrile, 0.1% formic acid
# note: boundary value 700 s maps to false (0); RP-LC retention time below it maps to true (1)

# Compound, Class
data = [
    ("COc1ccc(NC(=O)C2=Cc3cc(OC)ccc3OC=C2)cc1", "false (0)"),
    ("O=C([C@@H]1C[C@H](F)CN1C(=O)Nc1ccc(Cl)cc1)N1CCCCC1", "false (0)"),
    ("CCOC(=O)c1c(C)[nH]c(CCC(=O)NCCN2CCOCC2)c1C", "true (1)"),
    ("Cc1nc(-c2ccc(N3CCN(C(=O)COc4ccccc4)CC3)nc2)sc1C", "false (0)"),
    ("CCc1ccc(NC(=O)Cn2nc3cc(C)nc(Nc4ccc(C)c(F)c4)n3c2=O)cc1", "false (0)"),
]

Lookup: Does `O=C(Cc1cccn1-c1ccc(Cl)cc1)NCc1ccc(N2CCOCC2)cc1` have RP-LC retention time strictly under 700 s?
Found: false (0)

Lookup: Record: `O=C(CC(c1ccccc1)c1ccccc1)N(Cc1ccsc1)Cc1ccccn1`
Found: false (0)

Lookup: Same read-out for `O=C1c2cccc3cccc(c23)C(=O)N1c1cccnc1` ?
Found: true (1)

Lookup: Okay, and `COc1ccc(NC(=O)N2CCC3(CC2)NC(=O)c2ccccc2N3C)c(C)c1` ?
Found: false (0)

Lookup: Note, next up: O=C(C1CC1)N1CCC(c2noc(-c3ccccn3)n2)C1 (stereo unspecified)
Found: true (1)

Lookup: Likewise for `O=C(Cn1c(SCc2cccc(F)c2)nc2cccnc21)N1CCCC1` ?
Found: true (1)

Lookup: And for `NC(=O)C1CCN(Cc2cc(-c3ccc(F)cc3)n[nH]2)CC1` ?
Found: true (1)

Lookup: Further, for O=C(Nc1ccc(F)cc1)OC1CCCC(NC(=O)c2ccc(Br)o2)C1 (stereo unspecified) ?
Found: false (0)

Lookup: // same read-out, input: `CC(=O)N1CCC2(CC1)NC(=O)c1ccccc1O2`
Found: true (1)

Lookup: Subsequent entry: Cc1cc(C)c(NC(=O)C2CCCN2S(=O)(=O)c2cc3c(cc2C)NC(=O)CO3)c(C)c1 (stereo unspecified)
Found: false (0)

Lookup: Try this compound too: `COc1ccccc1C(=O)Nc1ccc2c(c1)Sc1ncccc1C(=O)N2C`
Found: false (0)

Lookup: Also, O=C(NCCCN1CCOCC1)C1CCc2sc(C(=O)N3CCCC3)cc2C1 (stereo unspecified) please.
Found: true (1)
